Recorded values, source PubChem BioAssay (NCI).

System: A549 NSCLC
Assay: NCI tumour cell line growth inhibition, 48 h

COMPOUND: CCn1c(-c2nonc2N)nc2c(C#CC(C)(C)O)ncc(OCC3CCNCC3)c21
GI50: 10700 nM
//
COMPOUND: CCN(CC)Cc1cc(Nc2c3ccc(Cl)cc3nc3c(C)cccc23)ccc1O
GI50: 1640 nM
//
COMPOUND: COc1ccc(OC)c(/C=C/C(=O)c2ccc(SC)cc2)c1
GI50: 28900 nM
//
COMPOUND: Nc1ccc(Sc2ccc3c4c2cccc4c(=O)n2c4ccccc4nc32)cc1
GI50: 2170 nM
//
COMPOUND: CCCCCCCC(=O)O[C@H]1[C@H]2[C@@H](CC1(C)C)C(=O)[C@]13O[C@H]1C(=O)[C@]1(CO1)[C@]23C
GI50: 22500 nM
//
COMPOUND: CC(=O)O[C@H]1Cc2c([nH]c3ccccc23)[C@@H](c2ccc(Cl)cc2)N1C(=O)CCNC(C)(C)C
GI50: 5190 nM
//
COMPOUND: O=C(Nc1ccc(Oc2cccc(Cl)c2)c(Cl)c1)c1cccnc1
GI50: 2080 nM
//
COMPOUND: O=C(Nc1ccc(I)cc1F)c1cc(F)ccc1O
GI50: 2240 nM
//
COMPOUND: CCOC(=O)Nc1ccc2nc(Sc3ccc(Cl)cc3)sc2c1
GI50: 6300 nM
//
COMPOUND: COc1ccc(Nc2ccnc3cc(Cl)ccc23)cc1CN(CCCl)CCCl
GI50: 1690 nM
//
COMPOUND: CN1CCN(Cc2ccc(NC(=O)c3cncc(C#Cc4cncc5[nH]ncc45)c3)cc2C(F)(F)F)CC1
GI50: 1670 nM
//
COMPOUND: CCN(CC)CCn1nc2c3c(cccc3c1=O)-c1ccccc1-2
GI50: 1050 nM
//
COMPOUND: COc1ccc(C(=O)C(CN(C)C)c2ccccc2)cc1 (stereo not drawn)
GI50: 18100 nM

###

Test system: SW-620 colon
Test: NCI tumour cell line growth inhibition, 48 h; in the data active = GI50 below about 0.43 µM; inactive = the rest
Labels: 1.0 = active, 0.0 = inactive

COMPOUND: O=C1c2ccccc2-c2c1c1ccccc1c(=O)n2CCCNCCO
ASSIGNED_LABEL: 1.0
--
COMPOUND: COc1ccc(Nc2ccnc3cc(Cl)ccc23)cc1CN(CCCl)CCCl
ASSIGNED_LABEL: 0.0
--
COMPOUND: COC(=O)C([O][Ge]([CH3])([CH3])[CH3])c1ccccc1 (stereo not given)
ASSIGNED_LABEL: 0.0
--
COMPOUND: c1cc[c]([Sn]([O]c2cccc3cccnc23)([c]2ccccc2)[c]2ccccc2)cc1
ASSIGNED_LABEL: 1.0
--
COMPOUND: C[C@@H]1CC[C@H]2C(CN(C)CC3=C(C(F)(F)F)O[C@@H]4O[C@@]5(C)CC[C@H]6[C@H](C)CC[C@@H]3[C@@]46OO5)=C(C(F)(F)F)O[C@@H]3O[C@@]4(C)CC[C@@H]1[C@]32OO4
ASSIGNED_LABEL: 0.0
--
COMPOUND: Cn1ccnc1C(=O)/C=C/c1ccc(CC(=O)Nc2cc(F)c(F)c(F)c2)cc1
ASSIGNED_LABEL: 0.0
--
COMPOUND: O=C(Nc1ccc(I)cc1F)c1cc(F)ccc1O
ASSIGNED_LABEL: 0.0
--
COMPOUND: COC(=O)CCCCCCCCC(=O)c1c(C)[nH]c(/C=C2\N=C(c3ccc[nH]3)C=C2OC)c1C
ASSIGNED_LABEL: 0.0
--
COMPOUND: CN(C)CC1CCCCCCCCCCC1=O (stereo not given)
ASSIGNED_LABEL: 0.0
--
COMPOUND: CCN(CC)CCn1nc2c3c(cccc3c1=O)-c1ccccc1-2
ASSIGNED_LABEL: 0.0
